Molecular target: human ether-a-go-go-related gene (hERG) potassium channel (Homo sapiens, UniProt Q12809)
Construct: WT hERG stably expressed in HEK293 cells
Sequence (Q12809 whole entry): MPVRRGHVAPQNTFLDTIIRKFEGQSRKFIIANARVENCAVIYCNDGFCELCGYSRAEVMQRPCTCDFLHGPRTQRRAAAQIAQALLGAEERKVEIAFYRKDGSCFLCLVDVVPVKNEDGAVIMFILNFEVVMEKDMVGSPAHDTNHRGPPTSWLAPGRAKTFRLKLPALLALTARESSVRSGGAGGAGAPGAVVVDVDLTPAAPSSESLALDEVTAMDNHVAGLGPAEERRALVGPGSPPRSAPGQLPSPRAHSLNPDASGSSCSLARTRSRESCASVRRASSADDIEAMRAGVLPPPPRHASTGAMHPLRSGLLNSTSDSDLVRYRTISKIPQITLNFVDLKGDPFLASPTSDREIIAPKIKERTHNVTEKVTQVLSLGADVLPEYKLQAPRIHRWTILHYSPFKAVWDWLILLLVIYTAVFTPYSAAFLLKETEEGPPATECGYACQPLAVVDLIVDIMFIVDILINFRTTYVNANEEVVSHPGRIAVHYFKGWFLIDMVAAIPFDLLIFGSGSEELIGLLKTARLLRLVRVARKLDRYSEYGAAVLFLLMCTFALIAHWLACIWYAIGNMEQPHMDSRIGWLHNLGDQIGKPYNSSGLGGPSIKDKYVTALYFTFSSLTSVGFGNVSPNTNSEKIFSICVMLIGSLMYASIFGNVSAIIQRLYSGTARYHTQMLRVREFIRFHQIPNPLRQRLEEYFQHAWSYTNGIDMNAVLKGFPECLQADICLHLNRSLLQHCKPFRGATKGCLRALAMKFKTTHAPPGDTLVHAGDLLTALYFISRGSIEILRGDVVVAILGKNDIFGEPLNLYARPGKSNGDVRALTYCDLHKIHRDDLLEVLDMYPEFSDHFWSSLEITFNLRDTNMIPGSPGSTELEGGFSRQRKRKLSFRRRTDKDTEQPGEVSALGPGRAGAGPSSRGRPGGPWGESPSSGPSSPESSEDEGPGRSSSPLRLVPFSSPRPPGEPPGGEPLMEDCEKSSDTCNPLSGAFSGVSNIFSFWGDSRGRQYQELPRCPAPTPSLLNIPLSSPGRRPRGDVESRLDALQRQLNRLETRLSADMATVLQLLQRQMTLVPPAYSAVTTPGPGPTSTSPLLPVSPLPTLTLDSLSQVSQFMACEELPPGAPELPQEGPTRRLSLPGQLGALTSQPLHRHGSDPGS
Test: whole-cell patch clamp of hERG tail current, immediate perfusion; acute block lost in Y652A and F656V mutants
pIC50: −log10 of the molar value.
recorded.endpoint: pIC50

| compound | recorded.endpoint | result.value |
| --- | --- | --- |
| COc1ccc2c(c1OC)CN1CCc3cc4c(cc3C1=C2)OCO4 [DHB, dihydroberberine] | pIC50 | 4.98 |
